Molecular target: T1, recombinant human cardiac troponin T (human, UniProt P45379 2-298)
T1 construct: In the ECL assay the cTnT came from the Troponin T hs CalSet calibrator; also called cTnT; TnT
Experiment: SPR (Biacore T200, 37 C), Fab captured, cTnT analyte
endpoint-name: kon
Don't forget the unit after the value.

Per the records, this binder ( anti-cTnT Fab mutant 18 (V101Y) (Fab, V domains shown, it was tied to mutant 18 by the printed mutation V101Y; also called combination 18) VH: EVQLQQSGPELVKPGASVKMSCKASGYTFTDYYMKWVKQSHGKSLEWIGDINPNNGETFYNQKFKDKATLTVDKSSSTAYMQLNSLTSEDSAVYYCATRYFDYWGQGTTLTVSS VL: DIVLTQSPASLAVSLGQRATISCKASQSVDYDGTSYMNWFQQKAGQPPKRLIYAASNLESGIPARFSGRGSGTDFALNIHPVEEEDAATYYCQQSNEDPYTFGGGTKLEIK ) has kon equal to 2.9e+06 M⁻¹ s⁻¹

Data origin: patent US20210009668A1
